- assayExplanation: APR_HepG2_P-H2AX_72hr: Apredica 72-hour HepG2 Assay for H2AX Phosphorylation (AID 2282916);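 further: phospho-histone H2A.x immunostain intensity per cell marking DNA damage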
- conditionInfo: imaging, actives raise or lower the signal
Activity calls are given as the source filed them. How the source made its calls: active means hit-call score of the fitted dose curve at least 0.9, where 1 is the maximum; inactive means score below 0.9.
observationType: AC50

1. CN(C)C(=O)NC1(c2ccccc2)CCN(CCC[C@]2(c3ccc(Cl)c(Cl)c3)CCCN(C(=O)c3ccccc3)C2)CC1 : 15.1 µM (active)
2. CCCCc1nc2cccnc2n1Cc1ccc(-c2ccccc2-c2nnn[nH]2)cc1 : inactive
3. Cn1cnc2c1c(=O)[nH]c(=O)n2C : inactive
4. CC(=O)O[C@]1(C(C)=O)CC[C@H]2[C@@H]3C=C(Cl)C4=CC(=O)[C@@H]5C[C@@H]5[C@]4(C)[C@H]3CC[C@@]21C : inactive
5. C/C=C/c1ccc(OC)cc1 : inactive

Please find the next compound below.
IN: I have this compound here, COC(=O)CCCC(=O)OC , and I need its recorded AC50.
OUT: inactive
